Each entry below lists one item and its recorded normalized RNA/DNA level without ligand (log10) value.
B1: library; a variant is named by its letters at N, in order (parent)
chain: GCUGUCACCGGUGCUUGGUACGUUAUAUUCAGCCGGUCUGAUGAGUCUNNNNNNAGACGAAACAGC

variants of: B1; test: normalized RNA/DNA level without ligand (relative to sTRSVctl = 100) (log10 (% of sTRSVctl)); HEK293T overexpressing SLC46A1; higher = less ribozyme self-cleavage, higher mRNA level; conditions: without (6R,S)-folinic acid; ligand present: no
measuredEndpoint: normalized RNA/DNA level without ligand (log10)

variantIdentifier: GCCUAG
reportedValue: 1.98

variantIdentifier: AAGAUC
reportedValue: 2.04

variantIdentifier: AAUAUU
reportedValue: 1.98

variantIdentifier: UAGCGU
reportedValue: 1.92

variantIdentifier: GUAAAA
reportedValue: 2

variantIdentifier: UAGAUU
reportedValue: 1.98

variantIdentifier: CAAGCC
reportedValue: 2.1

variantIdentifier: AGCUUU
reportedValue: 2.01

variantIdentifier: UUGAAC
reportedValue: 2

variantIdentifier: CGUGUG
reportedValue: 1.97

variantIdentifier: UUCCAC
reportedValue: 2.01
